# Test system: NCI-H322M lung
# procedure.summary: NCI-60 one-dose screen, 48 h (100 = growth as untreated, 0 = no growth, -100 = all killed)
# test.conditions: 10 µM unless noted
This is part of a sample that, as a whole, favours compounds with a hit. Of some 83,000 tested, about 20% had one in any assay.
Task for the reader: assign each of the following compounds its reported growth.
Answers are plain numbers, in %.

Parameter requested: growth. Apply to each item below.
1. O=C1CCN2C(=O)Nc3ccccc3C2C1 (stereo not given)
2. CN(C)CCCC1(c2ccc(F)cc2)OCc2cc(-c3ccc(C(F)(F)F)nc3)ccc21 (stereo not given)
3. Nc1c2c(nc3ccc(Br)cc13)CC(c1ccccc1)CC2=O (stereo not given)
4. COc1cc2c(cc1-c1c(C)noc1C)ncc1nc(C3CCCCC3)n([C@@H](C)COC(F)F)c12
5. O=[N+]([O-])c1ccc(/C=N\Nc2ccccc2)cc1
6. Cc1ccc(S(=O)(=O)Nc2ccc(-c3cc(-c4cccc(F)c4)c(C#N)c(N)n3)cc2)cc1
7. COc1ccc2c3c(c4ccccc4cc13)C(=O)N(CCN(C)CCN)C2=O
8. CN1CCN(CCOc2ccc(-c3cnc4c(-c5cccc(F)c5)cnn4c3)cc2)CC1

Response:
1: 95.8; 2: 84.7; 3: 49.1; 4: 41.9; 5: 83; 6: 72.2; 7: -44.4; 8: 89.8

Parameter requested: growth. Apply to each item below.
1. O=C1CNCCN1
2. COc1ccc(/C=C2\N=C(c3ccccc3)N(c3cc(OC)c(OC)cc3C(=O)N3N=C(C)CC3=O)C2=O)cc1

Response:
1: 106; 2: 118

* * *

# Test system: OVCAR-5 ovarian
# procedure.summary: NCI-60 one-dose screen, 48 h (100 = growth as untreated, 0 = no growth, -100 = all killed)
# test.conditions: 10 µM unless noted
The panel holds about 83,000 compounds, 20% with a hit somewhere; the sample as a whole holds those more often.
Task for the reader: assign each of the following molecules its reported growth.
Answers are plain numbers, in %.

>>> measured_number("C[Si](C)(C)Cc1ccccc1")
94.1
>>> measured_number("Cc1ccc2oc(=O)cc(-c3sc(N4CCCCC4)nc3-c3ccccc3)c2c1")
102

Parameter requested: growth. Apply to each item below.
1. Nc1c(Cl)cc(N=Nc2ccccc2)cc1Cl
2. Cc1ccc(Cc2cnc(NC(=O)/C=C/c3cccc(C)c3)s2)cc1
3. O=C1C=C(C(O)c2ccc(O)cc2)C(=O)c2ccccc21 (stereo unspecified)
4. N#CCCCCCn1c2ccccc2c2c3c(c4c5ccccc5n(CCCCCC#N)c4c21)C(=O)N(O)C3=O

Response:
31.5
20.9
99.7
109

* * *

Task for the reader: assign each of the following compounds its reported growth.
# System: U251 CNS
# procedure.summary: NCI-60 one-dose screen, 48 h (100 = growth as untreated, 0 = no growth, -100 = all killed)
# test.conditions: 10 µM unless noted
This is part of a sample that, as a whole, favours compounds with a hit. Of some 83,000 tested, about 20% had one in any assay. Calls of active or inactive are those of the source. The calls were made as follows: active = growth percent below 10; inactive = the rest.

Some compounds with known growth results, for comparison:
>>> result("CC(=O)c1c(C)[nH]c(-c2nc3ccc(N4CCN(C)CC4)cc3[nH]2)c1-c1ccc(OCC2CCOCC2)cc1")
"48.2% (inactive)"
>>> result("C=C(C)[C@@H]1CC[C@]2(C(=O)N3CCCNCC3)CC[C@]3(C)[C@H](CC[C@@H]4[C@@]5(C)CCC(=O)C(C)(C)[C@@H]5CC[C@]43C)[C@@H]12")
"78% (inactive)"
>>> result("CC(C)(C)c1ccc(OCCCCCCCN2CCNCC2)cc1")
"12.9% (inactive)"
>>> result("N#C/C(=C\\c1ccc(-c2ccc(F)cc2)o1)c1nc(-c2ccco2)cs1")
"97.3% (inactive)"

Turning to the following compound.
Request: Fill in growth for record `Cc1ccc(-c2nn(Cc3cn(-c4cc(C)nc5ccccc45)nn3)c3ncnc(N)c23)cc1`
Response: 71.8% (inactive)

* * *

# Test system: SNB-19 CNS
# procedure.summary: NCI-60 one-dose screen, 48 h
# test.conditions: 10 µM unless noted
The panel holds about 83,000 compounds, 20% with a hit somewhere; the sample as a whole holds those more often. Activity calls are given as the source filed them. How the source made its calls: active means growth percent below 10; inactive means the rest.
Thanks in advance; please answer with one of these: active, inactive

>>> label_value("COC(=O)C(N)CSC(c1ccccc1)(c1ccccc1)c1ccccc1 (stereo not given)")
"inactive"
>>> label_value("COc1cc(NC(C)CN(CC(C)C)C(C)C)c2ncccc2c1 (stereo not given)")
"inactive"
>>> label_value("CC(=O)n1c(/C(C#N)=C/c2ccc(N(C)C)cc2)cc2ccccc21")
"inactive"
>>> label_value("N=c1ccc2nc3c(cc(N)c4ccccc43)oc-2c1")
"active"
>>> label_value("COc1cccc(-c2nn(-c3ccccc3)cc2-c2ccnc(NCCNS(=O)(=O)c3ccccc3)c2)c1")
"inactive"

Request: Query: recorded result category for `C=C1C(=O)O[C@H]2[C@H]1CC/C(COC(=O)N[C@H](Cc1c[nH]c3ccccc13)C(=O)OC)=C\CC[C@@]1(C)O[C@@H]21` in this test
Response: inactive

Request: Query: recorded result category for `O=C1NC(=Nc2ccc(S(=O)(=O)Nc3nccs3)cc2)S/C1=C\c1coc2ccccc2c1=O` in this test
Response: inactive

Request: Query: recorded result category for `Cc1cc(Nc2ccc(F)cc2)nc(N2CCN(c3ccnc4cc(Cl)ccc34)CC2)n1` in this test
Response: inactive

Request: Query: recorded result category for `O=C(/C=C\c1ccc2c(c1)OCO2)/C=C/c1ccc2c(c1)OCO2` in this test
Response: inactive

Request: Query: recorded result category for `O=S(=O)(NCCNc1cc(-c2cn(-c3ccccc3)nc2-c2cccc(O)c2)ccn1)c1ccc(C(F)(F)F)cc1` in this test
Response: inactive

Request: Query: recorded result category for `Cc1ccncc1C(=O)O` in this test
Response: inactive

Request: Query: recorded result category for `Cc1cc(N2CCN(C)CC2)nc(N(CCNc2ccnc3cc(Cl)ccc23)Cc2ccco2)n1` in this test
Response: inactive

Request: Query: recorded result category for `COc1ccc2c(c1)c(-c1nc(-c3c[nH]c4ncccc34)cs1)cn2CCNC(=O)OC(C)(C)C` in this test
Response: inactive

Request: Query: recorded result category for `CC(C)=CCC/C(C)=C/CC/C(C)=C/CSC[C@H](NC(=O)CCCCCN1CCN(C)CC1)C(=O)NC1CCCCCC1` in this test
Response: inactive

* * *

# System: SNB-75 CNS
# procedure.summary: NCI-60 one-dose screen, 48 h (100 = growth as untreated, 0 = no growth, -100 = all killed)
# test.conditions: 10 µM unless noted
Compounds without any hit were thinned out: in the full panel of roughly 83,000, 20% have a hit.
# binarize growth: threshold 90% inclusive, high side MET, low side NOT MET

Illustrative cases are given below, each with its answer.
>>> label_value("CCOC(=O)C/C(=C\\c1ccccc1)C(C)=O")
"MET"
>>> label_value("Cc1nnc2nc(N)[nH]n2c1=O")
"MET"
>>> label_value("COc1cc2[nH]c(C(=O)c3cc(OC)c(OC)c(OC)c3)c(N)c2cc1C#CCO")
"NOT MET"
>>> label_value("Cc1cc(N(CCCNc2ccnc3cc(Cl)ccc23)Cc2ccco2)nc(Cl)n1")
"NOT MET"
>>> label_value("Fc1ccc(Nc2ccc3c(OCCCN4CCOCC4)cccc3n2)cc1F")
"NOT MET"

Request: Textbook exercise: given the entry `Nc1c(C(=O)Nc2cccc(Br)c2)sc2nc3c(cc12)C(=O)CCC3` , state whether its growth is greater than or equal to 90%.
Response: NOT MET

* * *

# System: SW-620 colon
# procedure.summary: NCI-60 one-dose screen, 48 h
# test.conditions: 10 µM unless noted
# Method: Growth inhibition of the SW-620 human tumor cell line is measured as a screen for anti-cancer activity. Cells are grown in 96 well plates and exposed to the test compound for 48 hours. Compounds are tested at a single concentration, which is 10^-5 M for most compounds. The reported endpoint is percent growth (GI% or GIPRCNT), where numbers from 0 - 100% represent growth inhibition, and numbers from -100% - 0 represent cell death. For example, a value of 40 represents 60% growth inhibition. […]
About 83,000 compounds went through this panel and 20% of them were active in at least one assay; those are over-represented in the sample as a whole. Calls of active or inactive are those of the source. Rule for the calls: active = growth percent below 10; inactive = the rest.
Thanks in advance; please answer with one of these: true (active), false (inactive)

Illustrative cases are given below, each with its answer.
>>> label_value("COc1cc(-c2cc3cc(O)ccc3oc2=O)cc(OC)c1OC")
"false"
>>> label_value("CCN(CC)CCCCCNc1cc(OC(=O)c2ccccc2)cc2cccnc12")
"false"
>>> label_value("c1cnc2[nH]cc(-c3csc(-c4cn(CCCN5CCCCC5)c5ccccc45)n3)c2c1")
"true"
>>> label_value("CC(=O)Cc1nsc(NC(=O)c2ccoc2COc2ccccc2)n1")
"false"

Please find the next compound below.
Request: Query: recorded result category for `CC1(C)[C@@H](O)CC[C@]2(C)[C@H]3CC[C@@H]4[C@H]5[C@H](C(=O)/C=C/c6ccc(C(F)(F)F)cc6)CC[C@]5(CO)CC[C@@]4(C)[C@]3(C)CC[C@@H]12` in this test
Response: false

These entries and their values trace back to PubChem BioAssay (NCI).
